Test system human CGAS (157-522) (Homo sapiens), pIC50 listed for each of the molecules.
pIC50: −log10 of the molar value.
QUANTITY MEASURED: pIC50

MOLECULE | NUMERIC VALUE
FC(F)(F)c1n[nH]c(-c2nc3ncc(COCC(F)(F)C(F)(F)C(F)(F)F)cn3c2-c2cnc[nH]2)n1 | 8.20
CCOc1cnc2nc(-c3nc(C(F)(F)F)n[nH]3)c(-c3cnc[nH]3)n2c1 | 8.00
FC(F)(F)c1n[nH]c(-c2nc3nc4c(cn3c2-c2cnc[nH]2)CNC4)n1 | 8.20
FC(F)(F)c1n[nH]c(-c2nc3ncc(COCCC4COCCO4)cn3c2-c2c[nH]cn2)n1 (stereo not shown) | 8.00
CC1COC(COCc2cnc3nc(-c4nc(C(F)(F)F)n[nH]4)c(-c4c[nH]cn4)n3c2)C1 (stereo not shown) | 8.00
CC(O)C(O)COCc1cnc2nc(-c3nc(C(F)(F)F)n[nH]3)c(-c3cnc[nH]3)n2c1 (stereo not shown) | 8.10
O=C(O)Cc1cnc2nc(-c3nc(C(F)(F)F)n[nH]3)c(-c3cnc[nH]3)n2c1 | 8.00

* * *

Test system human CGAS (157-522) (Homo sapiens, UniProt Q8N884), pIC50 listed for each of the molecules.
pIC50: −log10 of the molar value. Counter-ions that a name gives are not always drawn.
QUANTITY MEASURED: pIC50

MOLECULE | NUMERIC VALUE
CCOCCOCc1cnc2nc(-c3nc(C(F)(F)F)n[nH]3)c(-c3cnc[nH]3)n2c1 | 8.10
FC(F)(F)c1n[nH]c(-c2nc3nc(C(F)(F)F)c(Cl)cn3c2-c2cnc[nH]2)n1 | 7.90
CC(=O)c1ccn2c(-c3cnc[nH]3)c(-c3nc(C(F)(F)F)n[nH]3)nc2n1 | 8.00
CCOCc1cn2c(-c3cnc[nH]3)c(-c3nc(C(F)F)n[nH]3)nc2nc1C(F)(F)F | 8.20
FC(F)(F)c1n[nH]c(-c2nc3nc4c(cn3c2-c2cnc[nH]2)CNCC4)n1 | 8.10
FC(F)CN1CC(Oc2cnc3nc(-c4nc(C(F)(F)F)n[nH]4)c(-c4cnc[nH]4)n3c2)C1 | 8.10
FC(F)(F)c1n[nH]c(-c2nc3ncc(COCCn4cccn4)cn3c2-c2c[nH]cn2)n1 | 8.20
FC(F)(F)c1n[nH]c(-c2nc3ncc(CC4CCCCC4)cn3c2-c2cnc[nH]2)n1 [Example 15, trifluoroacetic acid salt] | 8.00

(a) FC(F)(F)c1n[nH]c(-c2nc3nc(Cl)ccn3c2-c2cnc[nH]2)n1 [Example 7, trifluoroacetic acid salt]
(b) COc1cc(OC)n2c(-c3c[nH]cn3)c(-c3nc(C(F)(F)F)n[nH]3)nc2n1
-- ask Please tell me which of the two, a or b , has the higher reported pIC50 value. Write down the label of the entry you select.
-- reply a

* * *

Test system human CGAS (157-522) (Homo sapiens), pIC50 listed for each of the molecules.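 Note: biochemical enzyme reaction, 2′3′-cGAMP product measured by RapidFire mass spectrometry (MRM) normalised to c-di-UMP internal standard, inhibition of product formation relative to high and low control wells.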
pIC50: −log10 of the molar value. Where a name gives a salt, the structure may show the parent alone.
QUANTITY MEASURED: pIC50

MOLECULE | pIC50
Fc1cnc2nc(-c3nc(C(F)(F)F)n[nH]3)c(-c3cn[nH]c3)n2c1 [Example 38] | 8.10
FC(F)(F)c1n[nH]c(-c2nc3nc4c(cn3c2-c2cnc[nH]2)CNCC4(F)F)n1 [Example 83] | 8.10
FC(F)(F)c1n[nH]c(-c2nc3ncc(COCC4CCOC4)cn3c2-c2cnc[nH]2)n1 (stereo not shown) [Example 126] | 8.10
CN1Cc2cn3c(-c4cnc[nH]4)c(-c4nc(C(F)(F)F)n[nH]4)nc3nc2C(F)(F)C1 [Example 18, trifluoroacetic acid salt] | 7.90
